Just for reference, PubChem BioAssay AID1645838 is where these values come from.

# procedure details: supercomplex reporter luminescence per Hoechst cell count – Hoechst nuclei count (AID 1645838);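 note: control cybrid cells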
# conditions: Cells, luminescence/Hoechst cell count ratio, measured here: cell number, Hoechst nuclei count, library stock concentration (final well concentration not given) 2 mM
About 100 (5%) of roughly 2,000 compounds were called active. This is one part of a sample in which actives are shown more often than they occur.
// map cell count onto a label; ranges Low: < 5000; Medium: ≥ 5000 and < 6000; High: ≥ 6000

A selection of reference data follows.
{"molecule": "O=C1C(=Cc2cn(-c3ccccc3)nc2-c2ccc(OCc3ccc(Cl)cc3)cc2)SC(=S)N1CCS(=O)(=O)O", "cat": "Medium"}
{"molecule": "O=C(O)c1cc(C(F)(F)F)ccc1N1CCC(OCc2ccccn2)C1 (centres undefined)", "cat": "High"}
{"molecule": "Cc1nc(Nc2ncc(C(=O)Nc3c(C)cccc3Cl)s2)cc(N2CCN(CCO)CC2)n1", "cat": "Low"}
{"molecule": "CC1COCCN1c1cc(C2(S(C)(=O)=O)CC2)nc(-c2cccc3[nH]ccc23)n1 (centres undefined)", "cat": "Low"}

Task: Category of CCC(CO)Nc1nc(NCc2ccccc2)c2ncn(C(C)C)c2n1 (centres undefined) :
Output: Low

Task: Category of CC(OC1OCCN(Cc2n[nH]c(=O)[nH]2)C1c1ccc(F)cc1)c1cc(C(F)(F)F)cc(C(F)(F)F)c1 (centres undefined) :
Output: Low

Task: Category of Cc1cc(C)cc(NC(=O)Nc2ccc(S(N)(=O)=O)cc2)c1 :
Output: Medium

Task: Category of COc1ccc(C2(O)CCC(N3CCC(NC(=O)CNC(=O)c4cccc(C(F)(F)F)c4)C3)CC2)cn1 (centres undefined) :
Output: High

====

# procedure details: supercomplex reporter luminescence per Hoechst cell count – Hoechst nuclei count (AID 1645838);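 note: control cybrid cells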
# conditions: Cells, luminescence/Hoechst cell count ratio, measured here: cell number, Hoechst nuclei count, library stock concentration (final well concentration not given) 46 uM
Out of some 2,000 compounds screened, about 100 (5%) were called active. The sample as a whole holds a higher share of actives than the screen did.
observation type: cell count
Answers are plain numbers.

{"molecule": "CC(=O)c1c(C)c2cnc(Nc3ccc(N4CCNCC4)cn3)nc2n(C2CCCC2)c1=O", "assay result": 4850}
{"molecule": "COc1ccccc1Oc1ccc(N(Cc2cccnc2)S(=O)(=O)CC(F)(F)F)cc1", "assay result": 6460}
{"molecule": "CCOC(=O)NCCCC(=O)NCCc1ccccc1", "assay result": 5970}
{"molecule": "O=C(Cc1cccc(OC(F)(F)F)c1)Nc1ccc(CCCCc2nnc(NC(=O)Cc3ccccn3)s2)nn1", "assay result": 5940}
{"molecule": "NC(=O)c1cnc(NCCc2ccc(O)c(Cl)c2)nc1NCc1ccccc1", "assay result": 7430}
{"molecule": "O=C(O)c1ccc2nc(-c3cc(Cl)cc(Cl)c3)oc2c1", "assay result": 6810}
{"molecule": "Cc1ccc(NC(=O)c2cccc(C(C)(C)C#N)c2)cc1Nc1ccc2ncn(C)c(=O)c2c1", "assay result": 6500}
{"molecule": "C#CCC(Cc1cnc2nc(N)nc(N)c2n1)c1ccc(C(=O)NC(CCC(=O)O)C(=O)O)cc1 (stereo not given)", "assay result": 2070}

Go through the items and report each one's cell count.
1. Cc1cc(CS(=O)(=O)c2ccccc2)cc(OCc2ccc(CN3CCCC3CO)cc2)c1 (stereo not given)
2. O=c1[nH]oc2cc(Cl)ccc12

Output:
1. 5870
2. 6680

====

Kindly state cell count for each of the entries shown.
# procedure details: supercomplex reporter luminescence per Hoechst cell count – Hoechst nuclei count (AID 1645838);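 note: control cybrid cells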
# conditions: Cells, luminescence/Hoechst cell count ratio, measured here: cell number, Hoechst nuclei count, library stock concentration (final well concentration not given) 400 uM
The campaign covered roughly 2,000 compounds. About 100 (5%) were called active. The sample as a whole holds a higher share of actives than the screen did.
One number for each entry.

Some compounds with recorded cell count:
{"compound": "CC#C[C@]1(O)CC[C@@H]2[C@@H]3CCC4=CC(=O)CCC4=C3C(c3ccc(N(C)C)cc3)C[C@@]21C (stereo partly drawn)", "cell count": 5640}
{"compound": "Nc1ncnc2c1c(-c1ccc(Oc3ccccc3)cc1)cn2C1CCCC1", "cell count": 4230}

Okay, now this compound:
Task: Quote cell count reported for O=C(c1cc(Cc2n[nH]c(=O)c3ccccc23)ccc1F)N1CCN(C(=O)C2CC2)CC1 please.
Output: 5590

====

# procedure details: supercomplex reporter luminescence per Hoechst cell count – Hoechst nuclei count (AID 1645838);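 note: control cybrid cells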
# conditions: Cells, luminescence/Hoechst cell count ratio, measured here: cell number, Hoechst nuclei count, library stock concentration (final well concentration not given) 10 mM
Out of some 2,000 compounds screened, about 100 (5%) were called active. The sample as a whole holds a higher share of actives than the screen did.
Classification field: enter yes for cell count values not below 4000, no for values below it.

A selection of reference data follows.
{"compound": "CC1(C)OC2CO[C@@]3(COS(N)(=O)=O)OC(C)(C)OC3C2O1 (stereo not given in full)", "cat": "yes"}
{"compound": "c1ccc(Cc2ccncc2)cc1", "cat": "yes"}
{"compound": "O=C(O)c1ccc(-c2c[nH]c3ncc(-c4ccccc4)cc23)cc1C1CCCC1", "cat": "no"}
{"compound": "CCCCCC(=O)Nc1c(C)cc(Br)cc1C", "cat": "yes"}
{"compound": "CC(OC1OCCN(Cc2n[nH]c(=O)[nH]2)C1c1ccc(F)cc1)c1cc(C(F)(F)F)cc(C(F)(F)F)c1 (stereo not given)", "cat": "no"}

Task: Decide: is the reported value of cell count for CCOC(=O)C(N)Cc1ccc(-c2cc(OC(c3ccc(Cl)cc3-n3ccc(C)n3)C(F)(F)F)nc(N)n2)cc1 (stereo not given) equal to or greater than 4000?
Output: no

Task: Decide: is the reported value of cell count for NC(=O)c1ccc2nc(-c3ccc(Oc4ccc(Cl)cc4)cc3)[nH]c2c1 equal to or greater than 4000?
Output: no

Task: Decide: is the reported value of cell count for CN(CC=CC#CC(C)(C)C)Cc1cccc2ccccc12 equal to or greater than 4000?
Output: yes

Task: Decide: is the reported value of cell count for CC(C)(C)CCN1C[C@@H]2C(CNC(=O)c3cc(Cl)cc(Cl)c3)[C@@H]2C1 (stereo not given in full) equal to or greater than 4000?
Output: yes

Task: Decide: is the reported value of cell count for c1cc2c(cc1C1CCCCC1)c1c3n2CCNC3CCC1 (stereo not given) equal to or greater than 4000?
Output: yes

====

# procedure details: supercomplex reporter luminescence per Hoechst cell count – Hoechst nuclei count (AID 1645838);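 note: control cybrid cells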;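 for z-score: higher means more mitochondrial supercomplex formation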
# conditions: Cells, luminescence/Hoechst cell count ratio, library stock concentration (final well concentration not given) 10 mM, stronger effect = higher value
Hit rate of the full screen: of about 2,000 compounds, about 100 (5%) were called active. What follows is part of a selection rich in actives, with near analogues and random picks from the rest.
observation type: z-score

Some molecules with recorded z-score:
{"molecule": "Cn1cc(-c2ccc3c(c2)CCN3C(=O)Cc2cccc(C(F)(F)F)c2)c2c(N)ncnc21", "assay result": "0.717 (inactive)"}
{"molecule": "Nc1ncnc2c1c(-c1ccc(Oc3ccccc3)cc1)cn2C1CCCC1", "assay result": "0.246 (inactive)"}
{"molecule": "CC(C)(C)OC(=O)N1CCC(OC2CCNCC2)CC1", "assay result": "0.428 (inactive)"}
{"molecule": "Cc1ccc(NC(=O)c2cccc(C(C)(C)C#N)c2)cc1Nc1ccc2ncn(C)c(=O)c2c1", "assay result": "3.11 (active)"}
{"molecule": "Cc1ccc(C(=O)Nc2cccc(C(F)(F)F)c2)cc1Nc1cncc(C(N)=O)c1", "assay result": "-0.825 (inactive)"}
{"molecule": "COC(=O)C(CCSC)NC(=O)c1ccc(NCC(N)CS)cc1-c1ccccc1 (stereo not given)", "assay result": "-1.02 (inactive)"}
{"molecule": "CC(C)c1ccccc1S(=O)(=O)c1cc(N)c2ncccc2c1[N+](=O)[O-]", "assay result": "2.73 (active)"}
{"molecule": "N#Cc1cccc(C#N)c1-c1nc2c3ccccc3c3cc(Cl)ccc3c2[nH]1", "assay result": "0.519 (inactive)"}
{"molecule": "CC#C[C@]1(O)CC[C@@H]2[C@@H]3CCC4=CC(=O)CCC4=C3C(c3ccc(N(C)C)cc3)C[C@@]21C (stereo not given in full)", "assay result": "-0.985 (inactive)"}

Task: Quote z-score reported for CCC(CO)Nc1nc(NCc2ccccc2)c2ncn(C(C)C)c2n1 (stereo not given) please.
Output: 0.143 (inactive)

====

Kindly state z-score for each of the entries shown.
# procedure details: supercomplex reporter luminescence per Hoechst cell count – Hoechst nuclei count (AID 1645838);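 note: control cybrid cells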;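 for z-score: higher means more mitochondrial supercomplex formation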
# conditions: Cells, luminescence/Hoechst cell count ratio, library stock concentration (final well concentration not given) 46 uM, stronger effect = higher value
About 100 (5%) of roughly 2,000 compounds were called active. The list comes from a sample in which actives are over-represented; it also holds close analogues and randomly drawn compounds.
Numbers only.

Some molecules with recorded z-score:
{"molecule": "CN(C)C1CCc2[nH]c3ccc(NC(=O)c4ccc(F)cc4)cc3c2C1 (stereo unspecified)", "assay result": -0.478}
{"molecule": "CC(C)c1ccccc1S(=O)(=O)c1cc(N)c2ncccc2c1[N+](=O)[O-]", "assay result": -0.201}
{"molecule": "COc1cccc(-c2ccc(NC(=O)C3=C(C(=O)O)CCC3)c(F)c2)c1", "assay result": 0.0997}
{"molecule": "COc1ccc(C(=O)CC2(O)C(=O)Nc3c(Cl)ccc(Cl)c32)cc1 (stereo unspecified)", "assay result": -0.53}
{"molecule": "CCC(=O)NCC1CC1c1cccc2c1CCO2 (stereo unspecified)", "assay result": 0.0958}
{"molecule": "Cc1cc(CS(=O)(=O)c2ccccc2)cc(OCc2ccc(CN3CCCC3CO)cc2)c1 (stereo unspecified)", "assay result": -0.0615}

Go through the items and report each one's z-score.
1. COc1ccc(C(=O)C(=O)c2ccccc2)cc1
2. CCCCCCCCCCCCCCC(=O)NCCO
3. CC(=O)c1c(C)c2cnc(Nc3ccc(N4CCNCC4)cn3)nc2n(C2CCCC2)c1=O
4. COc1cc(C=C(C#N)C(=O)Nc2nnc(C(F)(F)F)s2)ccc1OCc1ccc(C(F)(F)F)cc1C(F)(F)F

Output:
-0.147
-0.0121
-0.186
-0.188

Task: Quote z-score reported for CCc1nc(N)nc(N)c1-c1ccc(Cl)cc1 please.
Output: -0.369
